molecular target: Gal(a1-3)Gal(b1-3)[Fuc(a1-4)]GlcNAc(b1-2)Man(a1-3)[Gal(a1-3)Gal(b1-3)[Fuc(a1-4)]GlcNAc(b1-2)Man(a1-6)]Man(b1-4)GlcNAc(b1-4)GlcNAc; test: glycan array binding signal (z-score within array); higher = stronger binding; settings: glycan notation: IUPAC condensed, linker removed
The full list was thinned out, with the strongest signals kept by preference.
Reported values of glycan array binding signal (z-score) for individual entries

Binder	glycan array binding signal (z-score)
RbmA (Vibrio cholerae), A0A2H4NFB8 (protein) MSNFKGSIMNKRHYYLASCLALLFSTASYAEVDCELQPVIEANLSLNQNQLASNGGYISSQLGIRNESCETVKFKYWLSIKGPEGIYFPAKAVVGVDTAQQESDALTDGRMLNVTRGFWVPEYMADGKYTVSLQVVAENGEVFKANQEFVKGGDLNSLPELNGLTIDIKNQFGINSVESTGGFVPFTIDLNNGREGEAKVEFWMTAVGPDGLIIPVHSREKWMIIAGNTFSKVRGINFDKSYPAGEYTINAQVVDIVSGERVEQLMTVVKK	-0.276
LecB PA14 (Pseudomonas aeruginosa) (protein) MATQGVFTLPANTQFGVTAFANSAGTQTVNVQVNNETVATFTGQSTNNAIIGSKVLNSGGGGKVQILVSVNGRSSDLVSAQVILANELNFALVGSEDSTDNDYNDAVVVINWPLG	2.54
AcfC (Vibrio cholerae), Q57410 (protein) MKSKNRFLLISLLSFSTSVFADVNLYGPGGPHVPLIKVAESFEKSQSKRVNITFGPQATWNDKAKKNADILFGASEHSALAIAEGHSERFSKFNIHPVFMREAIILVKKGNPKNIKGMADLLKPGIGIVVNDGAGVSNTSGTAVWEDSVGRMKNVEKLQAFRSNIHVFAPNSGSARKAFVDGEDIDAWITWVDWAIANPTIGDMVRMEDEYRIYRDFNVVLAKNPSSEAIDFFDYLTKSKDAEAIFQHYGWFK	4.58
